ASSAY_TEXT: Rat hepatocyte stability
Assay type: in vitro ADME
CONDITIONS: hepatocytes, read-out: Hepatocytes (rat) T1/2
PARAMETER_MEASURED: half-life
// return the numeric value with its unit appended

COMPOUND	REPORTED
O=C(Cc1cncc(-n2cc(Cl)c3cc(Cl)cc(Cl)c32)c1)N[C@@H]1COC[C@H]1O [Compound 661]	5.7 min

Let us move to another entry and its half-life.
For the compound shown here, O=C(Cc1cc(-n2cc(Cl)c3cc(Cl)cc(Cl)c32)ccc1F)NCCO [Compound 627] , give the reported half-life. 12.6 min

###

ASSAY_TEXT: Human liver microsome metabolic stability
Assay type: in vitro ADME
CONDITIONS: human liver microsomes; read-out: HLM Clint
Documented microsomal CLint at 1 µM across a set of molecules
Be sure to follow the number with its unit.

Examples with their reported microsomal CLint at 1 µM follow.
MOLECULE	REPORTED
COC[C@@H](CO)NC(=O)Cc1cc(Sc2c(Cl)cc(Cl)cc2C(C)C)ccc1F	686 µL/min/mg
CC(C)c1cc(Cl)cc(Cl)c1C(O)c1ccc(F)c(CC(=O)NCC(C)(C)O)c1 (stereo not shown)	89.1 µL/min/mg
COC[C@@H](CO)NC(=O)Cc1cc(Sc2c(Cl)cc(F)cc2C(C)C)ccc1F	839 µL/min/mg
O=C(Cc1cncc(-n2cc(Cl)c3cc(Cl)cc(Cl)c32)c1)N[C@@H]1COC[C@H]1O	72 µL/min/mg
O=C(Cc1cncc(-n2cc(Cl)c3cc(Cl)cc(Cl)c32)c1)NCCO	27.3 µL/min/mg
CC(C)c1cc(Cl)cc(Cl)c1C(=O)c1ccc(F)c(CC(=O)NCC(C)(C)O)c1	91.8 µL/min/mg
CC(C)c1cc(Cl)cc(Cl)c1C(=O)c1ccc(F)c(CC(=O)NCC2(O)CCC2)c1	120 µL/min/mg
O=C(Cc1cncc(-n2cc(Cl)c3cc(Cl)cc(Cl)c32)c1)N[C@@H]1COC[C@@H]1O	38.1 µL/min/mg
O=C(Cc1cncc(-n2cc(Cl)c3cc(Cl)cc(Cl)c32)c1)N[C@H]1COC[C@@H]1O	53.6 µL/min/mg

// switching to the query molecule
Field request: microsomal CLint at 1 µM | item: `CC(C)c1cc(Cl)cc(Cl)c1C(=O)c1ccc(F)c(CC(=O)NCC2(O)CC2)c1` 441 µL/min/mg

###

Tested on: 78 recombinant targets
ASSAY_TEXT: In-vitro selectivity panel, 78 targets
CONDITIONS: all 9 modulated targets of 78
PARAMETER_MEASURED: IC50

Can you look up the measured IC50 of `O=C(Cc1cncc(-n2cc(Cl)c3cc(Cl)cc(Cl)c32)c1)N[C@@H]1COC[C@H]1O` for me? > 1.4 µM

###

ASSAY_TEXT: Log D, 1-octanol/buffer shake flask
Format: physicochemical
CONDITIONS: 1-octanol/phosphate buffer, pH 7.4; read-out: LogD
PARAMETER_MEASURED: logD
# output: bare number, no unit

MOLECULE	logD
O=C(Cc1cncc(-n2cc(Cl)c3cc(Cl)cc(Cl)c32)c1)N[C@@H]1COC[C@@H]1O [Compound 662]	3.49
CC(C)c1cc(Cl)cc(Cl)c1Nc1ccc(F)c(CC(=O)NCC(C)(C)O)c1 [NH91, reference compound]	4.66

Any idea what logD was measured for O=C(Cc1cc(-n2cc(C(F)(F)F)c3cc(Cl)cc(Cl)c32)ncn1)NCCO [Compound 843] ? 3.75

// query logD value for entry CC(C)c1cc(Cl)cc(Cl)c1C(=O)c1ccc(F)c(CC(=O)NCC(C)(C)O)c1 [Compound 417-4] 4.08

What value of logD has been recorded for this entry: O=C(Cc1cncc(-n2cc(Cl)c3cc(Cl)cc(Cl)c32)c1)NCCO [Compound 649] 4.19

###

SUBJECT_OF_TEST: hKv7.2/3 (Homo sapiens, UniProt O43525+O43526)
Construct: host or cells: CHO
Sequence (O43525 whole entry): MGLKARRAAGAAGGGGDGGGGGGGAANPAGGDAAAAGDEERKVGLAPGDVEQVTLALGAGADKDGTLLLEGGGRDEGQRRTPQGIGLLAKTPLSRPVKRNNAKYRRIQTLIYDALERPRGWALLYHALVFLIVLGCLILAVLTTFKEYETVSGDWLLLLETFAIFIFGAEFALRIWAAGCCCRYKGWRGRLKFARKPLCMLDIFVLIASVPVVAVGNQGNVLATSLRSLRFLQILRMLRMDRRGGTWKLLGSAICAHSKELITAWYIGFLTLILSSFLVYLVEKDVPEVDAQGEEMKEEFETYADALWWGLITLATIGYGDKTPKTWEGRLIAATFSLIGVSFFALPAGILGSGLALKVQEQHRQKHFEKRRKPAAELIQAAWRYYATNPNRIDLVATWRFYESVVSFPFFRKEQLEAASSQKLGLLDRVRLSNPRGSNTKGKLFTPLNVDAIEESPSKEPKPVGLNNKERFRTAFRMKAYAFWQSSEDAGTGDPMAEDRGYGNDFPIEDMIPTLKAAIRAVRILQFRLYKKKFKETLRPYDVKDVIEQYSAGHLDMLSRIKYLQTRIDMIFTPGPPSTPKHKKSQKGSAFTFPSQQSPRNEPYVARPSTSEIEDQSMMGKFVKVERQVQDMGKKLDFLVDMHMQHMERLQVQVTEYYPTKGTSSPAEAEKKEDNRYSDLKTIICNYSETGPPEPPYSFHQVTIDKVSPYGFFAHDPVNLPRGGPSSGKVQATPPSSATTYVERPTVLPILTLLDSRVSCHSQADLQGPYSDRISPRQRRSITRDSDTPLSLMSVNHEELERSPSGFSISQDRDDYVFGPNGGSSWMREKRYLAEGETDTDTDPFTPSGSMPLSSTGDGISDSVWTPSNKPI
Sequence (O43526 whole entry): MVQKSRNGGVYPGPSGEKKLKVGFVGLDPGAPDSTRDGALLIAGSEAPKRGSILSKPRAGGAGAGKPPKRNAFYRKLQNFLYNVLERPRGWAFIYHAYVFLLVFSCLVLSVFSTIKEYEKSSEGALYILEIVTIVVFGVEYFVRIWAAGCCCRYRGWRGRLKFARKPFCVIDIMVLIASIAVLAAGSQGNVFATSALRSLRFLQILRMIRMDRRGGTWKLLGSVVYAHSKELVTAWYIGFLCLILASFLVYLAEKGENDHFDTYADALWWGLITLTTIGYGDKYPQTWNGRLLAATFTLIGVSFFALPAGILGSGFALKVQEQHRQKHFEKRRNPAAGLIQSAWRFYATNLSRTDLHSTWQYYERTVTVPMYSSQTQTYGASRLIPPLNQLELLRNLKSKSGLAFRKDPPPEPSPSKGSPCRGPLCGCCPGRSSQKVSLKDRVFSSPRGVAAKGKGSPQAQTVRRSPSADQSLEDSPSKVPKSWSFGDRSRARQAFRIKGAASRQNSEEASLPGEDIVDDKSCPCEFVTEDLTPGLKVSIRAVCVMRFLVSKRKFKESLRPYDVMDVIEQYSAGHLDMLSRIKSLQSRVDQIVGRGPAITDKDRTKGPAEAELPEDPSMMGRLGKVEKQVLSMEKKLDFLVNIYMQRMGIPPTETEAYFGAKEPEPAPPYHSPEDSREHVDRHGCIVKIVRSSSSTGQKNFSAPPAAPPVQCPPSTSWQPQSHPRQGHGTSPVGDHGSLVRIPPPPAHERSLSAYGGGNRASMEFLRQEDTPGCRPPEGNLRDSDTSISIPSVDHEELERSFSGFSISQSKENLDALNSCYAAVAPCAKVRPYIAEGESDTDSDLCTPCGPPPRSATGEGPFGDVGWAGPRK
ASSAY_TEXT: Kv7.2/7.3 HCS, FLIPR potassium (thallium) assay, CHO/hKv7.2/3
Type: cell-based
CONDITIONS: Table 1; read-out: Kv7.2/7.3 IC50
Mark Yes only when EC50 stays strictly below 6 µM. Values equal to the cut-off are No.

COMPOUND	CAT
CC(C)c1cc(Cl)cc(Cl)c1C(=O)c1ccc(F)c(CC(=O)NCC2(O)CCC2)c1	Yes
CC(C)c1cc(Cl)cc(Cl)c1C(=O)c1ccc(F)c(CC(=O)NCC2(O)CC2)c1	No
O=C(Cc1cc(-n2cc(Cl)c3cc(Cl)cc(Cl)c32)ccc1F)NCCO	Yes
O=C(Cc1cncc(-n2cc(Cl)c3cc(Cl)cc(Cl)c32)c1)N[C@@H]1COC[C@H]1O	Yes
CC(C)c1cc(Cl)cc(Cl)c1C(O)c1ccc(F)c(CC(=O)NCC(C)(C)O)c1 (stereo not shown)	Yes

Query compound follows.
Lab note: confirm whether the reported EC50 for this compound is below 6 µM, equality not counting. compound: `Cc1cn(-c2ccc(F)c(CC(=O)NCC(C)(C)O)c2)c2c(Cl)cc(Cl)cc12` Yes

###

ASSAY_TEXT: Human liver microsome metabolic stability
Type: in vitro ADME
CONDITIONS: human, liver microsomes, human liver microsomes; read-out: HLM T1/2
PARAMETER_MEASURED: half-life at 1 µM (min)
Use min as the unit, but write only the number.

See these solved cases before continuing.
COMPOUND	half-life at 1 µM (min)
Cc1cn(-c2ccc(F)c(CC(=O)NCC(C)(C)O)c2)c2c(Cl)cc(Cl)cc12 [Compound 421]	25
O=C(Cc1nccc(-n2cc(Cl)c3cc(Cl)cc(Cl)c32)n1)NCCO [Compound 767]	61.9

Now turn to the next compound.
half-life at 1 µM for O=C(Cc1cncc(-n2cc(C(F)(F)F)c3cc(Cl)cc(Cl)c32)c1)N[C@@H]1COC[C@H]1O [Compound 770] ? 34.8

###

ASSAY_TEXT: Log D, 1-octanol/buffer shake flask
Type: physicochemical
CONDITIONS: 1-octanol/phosphate buffer, pH 7.4; read-out: LogD
Method: The Log D assay was a miniaturized 1-octanol/buffer shake flask method followed by LC/MS/MS analysis, as follows. The test compounds or control compounds Nadolol, Chlorpromazine Hydrochloride and Propranolol Hydrochloride were dissolved in 100% DMSO to obtain 10 mM solutions, which were transferred to 96-well polypropylene cluster tubes; 2 μL/well. […] The samples were analyzed using a triple quadrupole mass spectrometer. […]
PARAMETER_MEASURED: logD
// keep it numeric: no unit symbol after the value

What measured logD goes with `COC[C@@H](CO)NC(=O)Cc1cc(Sc2c(Cl)cc(F)cc2C(C)C)ccc1F` ? 4.25

Find the recorded logD belonging to O=C(Cc1nccc(-n2cc(Cl)c3cc(Cl)cc(Cl)c32)n1)NC1COCC1O (stereo not shown) and report it. 3.28

logD lookup needed for `O=C(Cc1cncc(-n2cc(Cl)c3cc(Cl)cc(Cl)c32)c1)N[C@H]1COC[C@@H]1O` , thanks. 3.52

Data credit: patent US20260327211A1
